# ASSAY NOTES: Hemolytic activity in rabbit RBC assessed as hemolysis rate at 6 times MIC incubated for 3 hrs by ultraviolet spectrophotometry analysis relative to control
# Type: toxicity, cell-based, Oryctolagus cuniculus, Erythrocyte
# CONDITIONS: rabbit red blood cells (erythrocytes), read-out: Activity

{"ENTRY SMILES": "C/C(=N\\NC(=N)N)c1sc(N/N=C/c2ccc(-c3cccs3)s2)nc1C", "hemolysis at 3 h, 6 x MIC": "1.7%"}

* * *

# ASSAY NOTES: Hemolytic activity in rabbit RBC assessed as hemolysis rate at 4 times MIC incubated for 3 hrs by ultraviolet spectrophotometry analysis relative to control
# Assay type: toxicity, cell-based, Oryctolagus cuniculus, Erythrocyte
# CONDITIONS: rabbit red blood cells (erythrocytes), read-out: Activity

{"ENTRY SMILES": "C/C(=N\\NC(=N)N)c1sc(N/N=C/c2ccc(-c3cccs3)s2)nc1C", "hemolysis at 3 h, 4 x MIC, %": 2.1}

* * *

# ASSAY NOTES: Inhibition of Escherichia coli ATCC 8739 UPPS using farnesyl pyrophosphate and isopentenyl pyrophosphate as a substrates preincubated for 30 min followed by EcPPA addition and measured after 30 min by malachite green dye based absorbance analysis
pIC50: −log10 of the molar value.
READOUT LABEL: pIC50

{"ENTRY SMILES": "C/C(=N\\NC(=N)N)c1sc(N/N=C/c2ccc(-c3cccs3)s2)nc1C", "MEASURED NUMBER": 3.84}

* * *

# Test system: Staphylococcus aureus
# ASSAY NOTES: Antibacterial activity against Staphylococcus aureus ATCC 6538P incubated for 24 hrs by broth microdilution method
# Assay type: functional
# Lookup of reported MIC keyed by entry

{"COMPOUND": "C/C(=N\\NC(=N)N)c1sc(N/N=C/c2cncs2)nc1C", "TESTED SYSTEM": "Staphylococcus aureus", "MIC (µg/mL)": 64}
{"COMPOUND": "C/C(=N\\NC(=N)N)c1sc(N/N=C/c2ccc(-c3ccc(C(F)(F)F)cc3)cc2)nc1C", "TESTED SYSTEM": "Staphylococcus aureus", "MIC (µg/mL)": 16}
{"COMPOUND": "C/C(=N\\NC(=N)N)c1sc(N/N=C/c2ccc(-c3cccs3)s2)nc1C", "TESTED SYSTEM": "Staphylococcus aureus", "MIC (µg/mL)": 2}
{"COMPOUND": "C/C(=N\\NC(=N)N)c1sc(N/N=C/C=C/c2c(F)cccc2F)nc1C", "TESTED SYSTEM": "Staphylococcus aureus", "MIC (µg/mL)": 128}
{"COMPOUND": "CCn1cc(C(=O)O)c(=O)c2cc(F)c(N3CCNCC3)cc21 [NORFLOXACIN]", "TESTED SYSTEM": "Staphylococcus aureus", "MIC (µg/mL)": 0.25}
{"COMPOUND": "C/C(=N\\NC(=N)N)c1sc(N/N=C/c2ccccc2F)nc1C", "TESTED SYSTEM": "Staphylococcus aureus", "MIC (µg/mL)": 16}

* * *

# ASSAY NOTES: Hemolytic activity in rabbit RBC assessed as hemolysis rate at 8 times MIC incubated for 3 hrs by ultraviolet spectrophotometry analysis relative to control
# Assay type: toxicity, cell-based, Oryctolagus cuniculus, Erythrocyte
# CONDITIONS: rabbit red blood cells (erythrocytes), read-out: Activity

{"ENTRY SMILES": "C/C(=N\\NC(=N)N)c1sc(N/N=C/c2ccc(-c3cccs3)s2)nc1C", "hemolysis at 3 h, 8 x MIC [%]": 1.3}
